test details: Determination of solubility in sodium phosphate buffers
Assay type: physicochemical
condition info: aqueous buffer, thermodynamic from solid; pH 2.1 sodium phosphate buffer; read-out: Solubility pH 2.1
quantity name: solubility at 1 h (mg/mL)

CC(C)Nc1nc(N[C@H](C)C(F)(F)F)nc(C2=CC(O)CC2)n1 (mixture of isomers)	0.448
Nc1nc(N)nc(C2=C(F)C(O)C(F)(F)CC2)n1 (stereo not shown)	0.789
C[C@@H](Nc1nc(C2=C(F)C(O)C(F)(F)CC2)nc(N2CC(F)(F)C2)n1)C(F)(F)F (stereo partly shown)	0.055
C[C@@H](Nc1nc(NCc2ccccn2)nc(C2=C(F)C(O)C(F)(F)CC2)n1)C(F)(F)F (mixture of isomers)	0.974
C[C@@H](Nc1nc(N[C@H](C)C(F)(F)F)nc(C2=C(F)C(O)C(F)CC2)n1)C(F)(F)F (single isomer, unassigned)	0.077
